Each entry below carries its recorded larval motility.
System: Aedes aegypti larvae
Test: larval motility relative to same well at 0 h (fraction); higher = more motile (less active compound), active = 0.4 or less
Settings: 10 µM; 24 h

Consider the worked cases shown below.
| compound | system-tested | value-reported |
| --- | --- | --- |
| Cc1ccc(NC(=O)c2ccc(CN3CCN(C)CC3)cc2)cc1Nc1nccc(-c2cccnc2)n1 | Aedes aegypti larvae | 0.702 (inactive) |
| O=C1NC(=O)C(Br)=C1Br | Aedes aegypti larvae | 0.484 (inactive) |
| C[C@@H]1O[C@@H]1P(=O)(O)O | Aedes aegypti larvae | 0.856 (inactive) |
| NC(=O)c1cnccn1 | Aedes aegypti larvae | 1 (inactive) |
| Cc1nc2ccc(Cl)cc2c(-c2ccccc2)c1CC(=O)O | Aedes aegypti larvae | 1.02 (inactive) |
| Cc1c[nH]c(=O)nc1NCc1ccccc1 | Aedes aegypti larvae | 0.91 (inactive) |

Data request: Using known records, supply larval motility for `O=C(O)C[C@H]1CC[C@H](c2ccc(-c3ccc(Nc4ccc(C(F)(F)F)nc4)cn3)cc2)CC1`
Data returned: 0.489 (inactive)

Data request: Look up larval motility of `C[C@@H](O)[C@H](N)C(=O)NS(=O)(=O)c1cccc(-c2ccc3[nH]ncc3c2)c1` and report it.
Data returned: 0.913 (inactive)

* * *

Tested on: Aedes aegypti larvae
Assay: larval motility relative to same well at 0 h (fraction); higher = more motile (less active compound), active = 0.4 or less
Settings: 10 µM; 24 h
Decision: larval motility compared against 0.9; not below it gives criterion met, below it gives criterion not met.

| molecule | label-value |
| --- | --- |
| Clc1ccc(COC(Cn2ccnc2)c2ccc(Cl)cc2Cl)c(Cl)c1 (stereo not given) | criterion not met |

Data request: # bool: larval motility of NC1C2CC3CC(C2)CC1C3 (stereo not given) >= 0.9
Data returned: criterion met

Data request: Reported larval motility reaches at least 0.9 for `CN(C)CCCNC(=O)c1ccc(-c2cc(O)c3ncccc3c2)cc1` ?
Data returned: criterion not met

Data request: Please indicate if the recorded larval motility for `NC(=O)c1[nH]c2ccc(S(N)(=O)=O)cc2c1-c1ccccc1` meets or exceeds 0.9.
Data returned: criterion met

Data request: Given the entry COc1cc(C(C(=O)NC2CCCCC2)N(C(=O)Cc2c[nH]c3ccccc23)c2ccc(C(C)C)cc2)cc(OC)c1OC (stereo not given) , answer whether its larval motility meets or surpasses 0.9.
Data returned: criterion met

Data request: Is the recorded value of larval motility equal to or greater than 0.9 for this molecule? O=C(O)C(Cc1c[nH]c2ccccc12)N1C(=O)c2ccccc2C1=O (stereo not given)
Data returned: criterion met

* * *

Test system: Aedes aegypti larvae
Test: larval motility relative to same well at 0 h (fraction); higher = more motile (less active compound), active = 0.4 or less
Details: 10 µM; 24 h
Ranges used to classify larval motility: lower band: < 0.8; central band: ≥ 0.8 and < 1; upper band: ≥ 1

Worked set:
| compound | system-tested | label-value |
| --- | --- | --- |
| O=S(=O)(Nc1cccc2cccnc12)c1ccccc1 | Aedes aegypti larvae | lower band |
| CCc1c(OCC2CCC2)c2cc(F)ccc2[nH]c1=O | Aedes aegypti larvae | upper band |
| CC1(C)[C@H](C(=O)O)N2C(=O)C[C@H]2S1(=O)=O | Aedes aegypti larvae | upper band |
| CC(C)Nc1ncnc2c1cnn2-c1ccc(Cl)cc1 | Aedes aegypti larvae | lower band |
| COc1cc(C2C3=C(CC(C)(C)CC3=O)Nc3ccccc3N2C(C)=O)ccc1OCc1ccccc1 (stereo unspecified) | Aedes aegypti larvae | lower band |

Data request: Kindly state the category for this compound: Oc1cccc(C(Nc2nccs2)c2ccc3cccnc3c2O)c1 (stereo unspecified)
Data returned: central band

Data request: Record CC(=O)N1c2ccccc2NC2=C(C(=O)CC(C)(C)C2)C1c1ccc(OCc2ccccc2)cc1 (stereo unspecified) — which class?
Data returned: upper band

Data request: Hi there! Could you help me figure out the category for `Cc1[nH]c2ccccc2c1CC(=O)N[C@@H](Cc1ccccc1)C(=O)N(C)c1ccccc1` please?
Data returned: upper band

Data request: // return the class label for `CC(C)Oc1ccc(-n2cnc3cc(/C=C\c4ccc(C(C)(C)O)cc4)ccc32)cc1`
Data returned: upper band

Data request: Class (by measured larval motility) for `COc1c(F)c(F)cc2c(=O)c(C(=O)O)cn(C3CC3)c12`
Data returned: upper band

Data request: State the band of `COc1ccc(CNC(=O)C2CCN([C@H](C)c3cccc4ccccc34)CC2)cc1`
Data returned: central band

Data request: For the record `N=C(N)c1ccc(COc2ccc(Cl)cc2)cc1` , report the class its larval motility corresponds to.
Data returned: lower band

Data request: Kindly state the category for this compound: `O=c1nc(N2CCN(CC3CCCCC3)CC2)sc2c([N+](=O)[O-])cc(C(F)(F)F)cc12`
Data returned: upper band

* * *

Examples of compounds with documented larval motility follow.
System: Aedes aegypti larvae
Experiment: larval motility relative to same well at 0 h (fraction); higher = more motile (less active compound), active = 0.4 or less
Conditions: 10 µM; 24 h
Lab note: jot the number down without any unit.

Data request: Identify the reported larval motility for the following entry. `COc1ccc2c(c1)cc(CNC(=O)c1cc3ccccc3o1)n2CC(=O)O`
Data returned: 0.871

Data request: Using known records, supply larval motility for `Cc1ccc(Oc2ccccc2-c2csc(NC3=NCCCN3)n2)c(C)c1`
Data returned: 0.786

Data request: Tell me measured larval motility for `CC1(C)CC(NC(=O)C(=O)Nc2ccc(Cl)cc2)CC(C)(C)N1` please.
Data returned: 0.896

Data request: State, in one line, measured larval motility of `CC(=O)N[C@H](C)C(=O)N[C@H](Cc1ccccc1)C(=O)O`
Data returned: 0.597

Data request: Output larval motility of `CCNC(=O)Nc1cc(-c2ccccc2)c(-c2cncc(C(=O)O)c2)cn1`
Data returned: 0.433

* * *

Listed here: items and their measured larval motility.
Tested on: Aedes aegypti larvae
Experiment: larval motility relative to same well at 0 h (fraction); higher = more motile (less active compound), active = 0.4 or less
Conditions: 10 µM; 24 h
# respond with the number and nothing more

Data request: Give me measured larval motility, please, for this molecule: `O=C(O)COc1cccc2c1CC[C@](O)(COC(=O)N(c1ccccc1)c1ccccc1)C2`
Data returned: 0.745

Data request: Provide only the value of recorded larval motility for `C[C@H](NC(=O)C(=O)Nc1ccccc1C(C)(C)C)C(=O)N[C@@H](CC(=O)O)C(=O)COc1c(F)c(F)cc(F)c1F`
Data returned: 1.23

* * *

System: Aedes aegypti larvae
Assay: larval motility relative to same well at 0 h (fraction); higher = more motile (less active compound), active = 0.4 or less
Details: 10 µM; 2 h
quantity-measured: larval motility
The answer should be a number; do not append a unit.

| molecule | larval motility |
| --- | --- |
| Cc1nc2ccc(Oc3ccccc3)cc2c2c1CCN2CCc1ccccc1 | 0.607 |

Data request: Provide larval motility value for the following molecule: CC1CCc2c(N3CCC(O)CC3)c(F)cc3c(=O)c(C(=O)O)cn1c23 (stereo not given)
Data returned: 1.3

Data request: Read off the recorded larval motility for `COc1cc(NS(=O)(=O)c2ccc(C)cc2)c2ncccc2c1`
Data returned: 0.89

Data request: # return recorded larval motility for entry `C[C@@H]1O[C@@H]1P(=O)(O)O`
Data returned: 0.617

Data request: Name the recorded larval motility of the item `CCCc1ccc(-c2cc3cn([C@H]4C[C@H](O)[C@@H](CO)O4)c(=O)nc3o2)cc1` in your answer.
Data returned: 0.729

* * *

Entries and their larval motility
Test system: Aedes aegypti larvae
Test: larval motility relative to same well at 0 h (fraction); higher = more motile (less active compound), active = 0.4 or less
Conditions: 10 µM; 2 h
No unit in the answer, only the number.

| chemical-string | larval motility |
| --- | --- |
| O=C(NCCN1CCCCC1)c1cccc(C(F)(F)F)c1 | 0.912 |
| COc1cc2c(O)c3c(c(-c4ccc5c(c4)OCO5)c2cc1OC)C(=O)OC3 | 0.887 |
| O=C(NCc1ccc(F)cc1)c1c(O)c2ncccc2[nH]c1=O | 0.718 |
| O=c1[nH]c(=O)n(Cc2cccc(Oc3ccccc3)c2)cc1Nc1ccccc1 | 0.698 |

Continue with the next compound.
Data request: Identify the reported larval motility for the following entry. `C[C@H]1[C@@H](c2cccc(C(F)(F)F)c2)OC(=O)N1C(=O)NCc1cncc2ccccc12`
Data returned: 0.716

* * *

Test system: Aedes aegypti larvae
Assay: larval motility relative to same well at 0 h (fraction); higher = more motile (less active compound), active = 0.4 or less
Settings: 10 µM; 2 h
Use one of these outcomes when replying: Yes for active, No for inactive

| compound | system-tested | label-value |
| --- | --- | --- |
| CCCCCCC1c2ccc(O)cc2Oc2cc(O)ccc21 | Aedes aegypti larvae | No |
| Cc1cc(C2CCCCC2)n(O)c(=O)c1 | Aedes aegypti larvae | No |
| Nc1cc(N)c2nc(-c3ccccc3)c(Nc3ccc(F)cc3)nc2c1 | Aedes aegypti larvae | No |
| N=C(N)c1ccc(COc2ccc(Cl)cc2)cc1 | Aedes aegypti larvae | No |
| Cn1c2ccccc2c(=O)c2c(O)cccc21 | Aedes aegypti larvae | No |

Data request: Which outcome did this test record for the compound `COc1cccc(N2CCN(C3=Nc4c(F)cccc4[C@H](CC(=O)O)N3c3cc(C(F)(F)F)ccc3OC)CC2)c1` ?
Data returned: No

Data request: What call does the record list for `O=C(O)c1ccc(-n2nc(-c3ccccc3O)nc2-c2ccccc2O)cc1` ?
Data returned: No

Data request: I'd appreciate the recorded outcome for `O=S(=O)(Nc1ccccc1)c1ccc(NC(=S)Nc2ccccc2)cc1` from this test.
Data returned: No

Data request: How did this test come out for COc1ccc(CNC(=O)C(NS(=O)(=O)c2ccc3nc(C)sc3c2)C(C)C)cc1 (stereo not given) ?
Data returned: Yes

Data request: Given `O=[N+]([O-])c1cn2c(n1)OC[C@@H](OCc1ccc(OC(F)(F)F)cc1)C2` , state the outcome it received in this test.
Data returned: No
